- ASSAY_METHOD_TEXT: Cytotoxicity on human adult dermal fibroblasts, MTT-test
- Format: cell-based
- STATED_CONDITIONS: human, human adult dermal fibroblasts (HDFa); HDFa, 72 h, MTT
- Experimental: Human adult dermal fibroblasts (HDFa). (ATCC) were propagated in DMEM medium (Paneco) supplemented with 10% fetal calf serum (Gibco) and 1% pemicillin/streptomycin in a 5% CO2 atmosphere at 37 °C. […] The cells in the exponential growth phase were trypsinized, counted, and seeded at a density of 5000 cells/well in 96-well plate. […] The absorbance was measured at […] and 620 nm using Thermofischer Scientific Multiscan FC. The values for each point were calculated from 6 wells.
METRIC: CC50 at 72 h

compound CC(=O)O[C@H]1CC[C@@]2(C)C(=CC[C@@H]3[C@@H]2CC[C@]2(C)C(c4cccnc4)=CC[C@@H]32)C1 [AbiAc, abiraterone acetate, reference compound] , CC50 at 72 h observed: > 100 µM
